self-cleavage overview
B1: HDV Ribozyme (parent)
chain: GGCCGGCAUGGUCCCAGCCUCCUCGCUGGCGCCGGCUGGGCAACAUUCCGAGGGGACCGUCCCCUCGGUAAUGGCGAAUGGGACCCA

# Variants of: B1
# Procedure Text: self-cleavage, relative activity (ratio to wild type); higher = more cleavage; co-transcriptional

Please review the following examples before continuing.
Mutation: G28U U37G
Result: 0.18
//
Mutation: A71U A78U
Result: 0.185
//
Mutation: U65A C84G
Result: 0.494
//
Mutation: G40U A45G
Result: 0.688

self-cleavage measured on U12A C86A = 0.623

self-cleavage measured on C32A G55C = 0.133

self-cleavage measured on G31A A56G = 0.369
